EXPERIMENTAL_SYSTEM: human TLR8 (Homo sapiens)
Sequence (Q9NR97 27-1041): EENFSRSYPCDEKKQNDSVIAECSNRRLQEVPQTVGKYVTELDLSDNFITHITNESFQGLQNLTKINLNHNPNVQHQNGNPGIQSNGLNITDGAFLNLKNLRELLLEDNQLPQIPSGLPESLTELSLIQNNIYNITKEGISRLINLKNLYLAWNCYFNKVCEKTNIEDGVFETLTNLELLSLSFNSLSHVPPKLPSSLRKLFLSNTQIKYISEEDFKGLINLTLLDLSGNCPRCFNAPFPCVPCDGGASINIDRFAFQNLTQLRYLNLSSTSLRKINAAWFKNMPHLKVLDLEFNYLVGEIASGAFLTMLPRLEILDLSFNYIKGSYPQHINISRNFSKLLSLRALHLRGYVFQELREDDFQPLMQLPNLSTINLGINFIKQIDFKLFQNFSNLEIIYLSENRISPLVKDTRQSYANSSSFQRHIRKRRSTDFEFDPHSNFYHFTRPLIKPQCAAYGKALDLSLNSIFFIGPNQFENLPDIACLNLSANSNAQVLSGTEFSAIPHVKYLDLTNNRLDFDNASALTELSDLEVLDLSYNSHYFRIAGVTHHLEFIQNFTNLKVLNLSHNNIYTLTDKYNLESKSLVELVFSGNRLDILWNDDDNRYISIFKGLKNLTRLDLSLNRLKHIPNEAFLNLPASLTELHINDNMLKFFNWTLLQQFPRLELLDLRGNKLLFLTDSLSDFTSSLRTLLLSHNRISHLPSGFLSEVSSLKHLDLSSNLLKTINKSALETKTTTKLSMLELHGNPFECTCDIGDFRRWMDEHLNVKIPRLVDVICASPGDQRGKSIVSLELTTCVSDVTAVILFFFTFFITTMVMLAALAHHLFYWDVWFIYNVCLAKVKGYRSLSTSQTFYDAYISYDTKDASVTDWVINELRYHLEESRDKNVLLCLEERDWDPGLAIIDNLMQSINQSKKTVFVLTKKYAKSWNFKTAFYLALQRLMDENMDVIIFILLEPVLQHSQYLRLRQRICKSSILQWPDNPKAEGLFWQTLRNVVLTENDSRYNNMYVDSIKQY
ASSAY_NOTES: TLR8 inhibition reporter assay (HEK-Blue cells, SEAP reporter, R848 stimulation)
CONDITION_CONTEXT: HEK-Blue cells overexpressing human TLR8, R848 15.9 μM
pIC50: −log10 of the molar value.
VALUE_TYPE: pIC50

Some compounds with known pIC50 results, for comparison:
Requested field: pIC50. Item: COc1ccc(-c2[nH]c3ccc(C4CCN(C5CCN(CC(C)(C)C)CC5)CC4)cc3c2C)cc1OC
6.49

Same lookup for COc1ccc(-c2[nH]c3ccc(C4CCN(C(=O)CO)CC4)cc3c2C(C)C)cc1OC , please.
6.30

What would you report for COc1ccc(-c2[nH]c3ccc(C4CCN(CC(=O)N(C)CCN(C)C)CC4)cc3c2CC(F)(F)F)cc1OC ?
7.44

Same thing, different compound: CCc1c(-c2ccc(OC)c(OC)c2)[nH]c2ccc(C3CCN(C4CCN(Cc5ccc(-c6ccccc6)s5)CC4)CC3)cc12
5.01

Similarly, COc1ccc(-c2[nH]c3ccc(C4CCN(C(=O)C5CCN(C(C)=O)CC5)CC4)cc3c2CC(F)(F)F)cc1OC ?
5.99

Entry COc1ccc(-c2[nH]c3ccc(C4CCN(C(=O)COC(C)C)CC4)cc3c2C(C)C)cc1OC please
6.18

Thanks! And COc1ccc(-c2[nH]c3ccc(C4CCN(C5CCN(Cc6ccco6)CC5)CC4)cc3c2C)cc1OC ?
6.62

Record: COc1ccc(-c2[nH]c3ccc(C4CCN(CC(=O)N(C)C)CC4)cc3c2CC(F)F)cc1OC
6.96

What do you get for CNCCN1CCC(c2ccc3[nH]c(-c4ccc(OC)c(OC)c4)c(CC(C)C)c3c2)CC1 ?
7.02

Entry COc1ccc(-c2[nH]c3ccc(C4CCN(C(=O)CN(C)C)CC4)cc3c2CC(F)(F)F)cc1OC please
7.09

A. COc1ccc(-c2[nH]c3ccc(C4CCN(C(=O)CN5CCC[C@@H](C(=O)NCC#N)C5)CC4)cc3c2C(C)C)cc1OC
B. CCN(CCN(C)C)C(=O)CN1CCC(c2ccc3[nH]c(-c4ccc(OC)c(OC)c4)c(CC(F)(F)F)c3c2)CC1
C. COc1ccc(-c2[nH]c3ccc(C4CCN(C5CCN(Cc6cccs6)CC5)CC4)cc3c2C)cc1OC
D. COc1ccc(-c2[nH]c3ccc(C4CCN(Cc5ccncc5)CC4)cc3c2C)cc1OC
E. COc1ccc(-c2[nH]c3ccc(C4CCNCC4O)cc3c2C(C)C)cc1OC (single isomer, unassigned) [Example 318, 2,2,2-trifluoroacetate]
Arrange these compounds by their pIC50, starting with the largest number. Respond with the label ranking, as requested.
B, A, C, D, E
(B: 7.60, A: 7.39, C: 6.71, D: 6.01, E: 5.22)

I. COc1ccc(-c2[nH]c3ccc(C4CCN(CC(=O)NCC(N)=O)CC4)cc3c2CC(F)(F)F)cc1OC
II. CCc1c(-c2ccc(OC)c(OC)c2)[nH]c2ccc(C3CCN(C4CCN(Cc5c(C)noc5C)CC4)CC3)cc12
Between I and II , which one has the lower reported pIC50 value? Give the label under which the chosen entry appears.
II
(II: 6.57, I: 7.39)

I. CCN(CC)C(=O)C1CCCN(CC(=O)N2CCC(c3ccc4[nH]c(-c5ccc(OC)c(OC)c5)c(C5CCOCC5)c4c3)CC2)C1 (stereo not shown) [Example 392]
II. COc1ccc(-c2[nH]c3ccc(C4CCN(C(=O)CN5CCC[C@H](C(=O)N6CCCC6)C5)CC4)cc3c2C(C)C)cc1OC
III. CCc1c(-c2ccc(OC)c(OC)c2)[nH]c2ccc(C3CCN(C4CCN(Cc5coc(C)n5)CC4)CC3)cc12
Endpoint returns the given compounds ordered by ascending pIC50. Labels, requested order.
I, III, II
(I: 6.71, III: 6.94, II: 7.48)

I. COc1ccc(-c2[nH]c3ccc(C4CCN(C(=O)CN5CCC[C@@H](C(=O)NCC(N)=O)C5)CC4)cc3c2C(C)C)cc1OC
II. COc1ccc(-c2[nH]c3ccc(C4CCN(C(=O)C[C@@H](C)O)CC4)cc3c2CC(F)(F)F)cc1OC
III. CCc1c(-c2ccc(OC)c(OC)c2)[nH]c2ccc(C3CCN(C4CCN(Cc5sccc5C)CC4)CC3)cc12
IV. COc1ccc(-c2[nH]c3ccc(C4CCN(C(=O)C[C@H](C)N)CC4)cc3c2C(C)C)cc1OC
V. CCc1c(-c2ccc(OC)c(OC)c2)[nH]c2ccc(C3CCN(C4CCN(Cc5ccccc5)CC4)CC3)cc12
Put these in order: smallest pIC50 first, largest last. List labels; respect the requested ordering.
II, III, V, I, IV
(II: 6.02, III: 6.69, V: 7.00, I: 7.23, IV: 7.72)

a. COc1ccc(-c2[nH]c3ccc(C4CCN(C(=O)CN5CCC[C@H](C(=O)N6CCN(C(C)=O)CC6)C5)CC4)cc3c2C(C)C)cc1OC
b. COc1ccc(-c2[nH]c3ccc(C4CCN(C(=O)CCn5ccc6ccccc65)CC4)cc3c2CC(F)(F)F)cc1OC
Select one: a or b . Criterion: greater recorded pIC50. Lab note: record the label of whichever item you select.
a
(a: 7.60, b: 5.29)

----------
EXPERIMENTAL_SYSTEM: human TLR9 (Homo sapiens, UniProt Q9NR96)
Sequence (Q9NR96 26-1032): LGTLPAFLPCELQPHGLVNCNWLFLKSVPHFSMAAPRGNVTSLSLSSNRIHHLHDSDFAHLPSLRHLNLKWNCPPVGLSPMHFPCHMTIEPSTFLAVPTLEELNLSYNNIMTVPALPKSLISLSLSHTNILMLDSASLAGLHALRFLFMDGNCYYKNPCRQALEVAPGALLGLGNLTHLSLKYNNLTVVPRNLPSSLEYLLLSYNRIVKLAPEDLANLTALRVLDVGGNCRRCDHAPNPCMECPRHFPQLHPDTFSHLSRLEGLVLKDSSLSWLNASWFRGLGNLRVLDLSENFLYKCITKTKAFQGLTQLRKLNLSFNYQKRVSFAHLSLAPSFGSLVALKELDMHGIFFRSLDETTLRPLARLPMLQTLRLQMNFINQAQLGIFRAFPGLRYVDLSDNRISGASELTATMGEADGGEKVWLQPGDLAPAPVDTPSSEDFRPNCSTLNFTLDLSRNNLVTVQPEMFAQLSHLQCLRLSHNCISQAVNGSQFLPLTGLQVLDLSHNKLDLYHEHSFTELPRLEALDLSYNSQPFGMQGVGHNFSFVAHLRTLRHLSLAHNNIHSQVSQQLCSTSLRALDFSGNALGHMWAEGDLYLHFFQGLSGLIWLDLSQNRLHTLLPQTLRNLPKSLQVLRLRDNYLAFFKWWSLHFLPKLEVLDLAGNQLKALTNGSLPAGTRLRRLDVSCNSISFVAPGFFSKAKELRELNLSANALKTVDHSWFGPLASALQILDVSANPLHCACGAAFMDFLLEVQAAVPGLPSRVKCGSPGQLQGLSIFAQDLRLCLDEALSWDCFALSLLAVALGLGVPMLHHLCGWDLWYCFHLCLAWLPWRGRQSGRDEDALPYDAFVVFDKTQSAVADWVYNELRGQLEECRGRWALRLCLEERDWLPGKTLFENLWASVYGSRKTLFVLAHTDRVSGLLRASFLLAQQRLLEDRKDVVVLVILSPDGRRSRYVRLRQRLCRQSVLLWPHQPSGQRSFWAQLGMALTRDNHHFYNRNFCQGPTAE
ASSAY_NOTES: TLR9 inhibition reporter assay (HEK-Blue cells, SEAP reporter, ODN2006 stimulation)
CONDITION_CONTEXT: HEK-Blue cells overexpressing human TLR9, ODN2006 5 nM
VALUE_TYPE: IC50 (nM)

Examples with their reported IC50 follow.
Record request: IC50 value, item COc1ccc(-c2[nH]c3ccc(C4CCN(Cc5cncn5C)CC4)cc3c2C)cc1OC [Example 40]
2010

Another compound to check: CCc1c(-c2ccc(OC)c(OC)c2)[nH]c2ccc(C3CCN(C(=O)CN4CC[C@@H](O)C4)CC3)cc12 [Example 173]
2240

Next entry: CCc1c(-c2ccc(OC)c(OC)c2)[nH]c2ccc(C3CCN(C4CCN(Cc5ccccc5)CC4)CC3)cc12 [Example 147]
552

Repeat with CCc1c(-c2ccc(OC)c(OC)c2)[nH]c2ccc(C3CCN(C4CCN(Cc5cc(C)n[nH]5)CC4)CC3)cc12 [Example 131]
447

Subsequent entry: COc1ccc(-c2[nH]c3ccc(C4CCN(C(=O)CN5CCC[C@H](C(=O)N6CCN(Cc7ccc(Br)cc7)CC6)C5)CC4)cc3c2C(C)C)cc1OC [Example 294]
2220

A. COc1ccc(-c2[nH]c3ccc(C4CCN(CC(=O)NCCCO)CC4)cc3c2C(C)C)cc1OC [Example 277]
B. COc1ccc(-c2[nH]c3ccc(C4CCN(CC(=O)N[C@H]5CC[C@H](C(C)(C)O)CC5)CC4)cc3c2C(C)C)cc1OC [Example 279]
Between these two entries, A and B , state which has the higher IC50. Output the label that corresponds to your choice.
B
